inhibition in vivo at 20 mg/kg by entry:
System: Rattus norvegicus
experimental_details: Anti-inflammatory activity in carrageenan-induced rat foot paw edema model assessed as reduction in paw volume at 20 mg/kg dosed 30 mins before carrageenan injection and measured 1 hr after carrageenan challenge
Assay type: functional
measured_quantity: inhibition in vivo at 20 mg/kg (%)

>>> df
                            smiles_notation               measured_quantity  quantitative_result
0  CCNCc1ccc(-c2cc(C(F)(F)F)nn2-c2ccc(S(N)(=O)=O)cc2)cc1  inhibition in vivo at 20 mg/kg                   53
1  CS(=O)(=O)c1ccc(-n2nc(C(F)(F)F)cc2-c2ccc(CN3CCNCC3)cc2)cc1  inhibition in vivo at 20 mg/kg                   67
2  CS(=O)(=O)c1ccc(-n2nc(C(F)(F)F)cc2-c2ccc(CN3CCN(N=O)CC3)cc2)cc1  inhibition in vivo at 20 mg/kg                   19
3  NS(=O)(=O)c1ccc(-n2nc(C(F)(F)F)cc2-c2ccc(CN3CCNCC3)cc2)cc1  inhibition in vivo at 20 mg/kg                   58
4  CCNCc1ccc(-c2cc(C(F)(F)F)nn2-c2ccc(S(C)(=O)=O)cc2)cc1  inhibition in vivo at 20 mg/kg                   66
5  Cc1ccc(-c2cc(C(F)(F)F)nn2-c2ccc(S(N)(=O)=O)cc2)cc1  inhibition in vivo at 20 mg/kg                   40
6  CNCc1ccc(-c2cc(C(F)(F)F)nn2-c2ccc(S(N)(=O)=O)cc2)cc1  inhibition in vivo at 20 mg/kg                   54
7  CNCc1ccc(-c2cc(C(F)(F)F)nn2-c2ccc(S(C)(=O)=O)cc2)cc1  inhibition in vivo at 20 mg/kg                   72
8  CCN(Cc1ccc(-c2cc(C(F)(F)F)nn2-c2ccc(S(C)(=O)=O)cc2)cc1)N=O  inhibition in vivo at 20 mg/kg                   24
